Origin of values: PubChem BioAssay

experiment: inhibitors of TNFa-induced NFkB p65 translocation, primary screen, imaging, HUVEC, MLSMR starter and 10KST1 sets (AID 438); details: HUVEC TNFa-induced p65 nuclear translocation; at 2 µM, hits give high values, 0% TNFa-plus-vehicle, 100% no-TNFa wells;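 further: compound added about 3h40 before a 20 min TNFalpha stimulation; signal is the nuclear over cytoplasmic p65 intensity ratio per well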
measured metric: inhibition (%)

> print(dat)
                                    molecule  experimental.result
 1  CCOC(=O)c1cnn(-c2cc(C)c3cc(C)cc(C)c3n2)c1N                    9
 2  Cc1cccc(NC(=O)CS(=O)(=O)c2cn(C)c3ccccc23)c1                  2.4
 3  O=C(CS(=O)(=O)c1cn(Cc2ccc(Cl)cc2)c2ccccc12)N1CCCC1                 -3.9
 4           COc1ccccc1NC(=O)Nc1nnc(C(C)C)s1                 -3.3
 5       CC(=O)Nc1cccc(Oc2nc(C)cc(C)c2C#N)c1                    4
 6  CC(C)c1nc(N2CCOCC2)c(C#N)c2c1COC(C)(C)C2                 -5.2
 7  COc1ccc(N2C(N)=C(C#N)C(c3cccnc3)C3=C2CC(C)(C)CC3=O)cc1 (configuration not stated)                 -7.5
 8           Cc1ccccc1Nc1cc2ccccc2c(=O)[nH]1                -12.2
 9  O=C(CSc1nc(N2CCCCC2)nc(N2CCCCC2)n1)Nc1nccs1                   -7
10  CC(c1ccccc1)n1cnc2ccccc21 (configuration not stated)                 -2.5
11  Nc1nc2n(n1)C(c1ccc(F)cc1)CC(c1ccc(F)cc1)N2 (configuration not stated)                -13.8
12           CCCCOCCCNC(=O)c1ccc(NC(C)=O)cc1                 -1.6
